Source listed as patent US20240294635A1.

Tested on: CD47 on the red cell surface (Homo sapiens (Human), UniProt Q08722 19-323)
Assay details: flow cytometry on fixed red cells, antibody 10 µg/mL
Each record here notes measured MFI.
The answer is to be given in MFI; state only the numeric part.

hz14A9-2.4 (antibody, human IgG4 S228P, kappa, V domains shown, humanized 14A9, full-length heavy and light chains) VH: QVQLVQSGAEVKKPGASVKVSCKVSGFNIEDDYIEWVRQAPGQGLEWMGRIDPANDKTKYAQKFQGRVTMTGDTSTNTVYMELSSLRSEDTAVYYCTRPGLRRYYSMDYWGQGTLVTVSS VL: DIQMTQSPSSLSASVGDRVTITCKASENVVSYVSWYQQKPGKAPKLLIYGASNRYTGVPSRFIGSGSSTDFTLTISSLQPEDFATYYCGQSYSYPLTFGQGTKLEIKR | 15000
hz3F10-6.2 (antibody, human IgG4 S228P, kappa, V domains shown, humanized 3F10, full-length heavy and light chains) VH: QVQLVQSGAEVKKPGSSVKVSCKASGYTFSRYWIEWVRQAPGQGLEWMGEFIPGSDTTNYAQKFQGRVTITAEISTNTAYMELSSLRSEDTAVYYCARGGLRRMDYWGQGTLVTVSS VL: DIQMTQSPSSLSASVGDRVTITCRASSSVSSTYLHWYQQKPGKAPKLWIYTTSTLASGVPSRFSGSGSGTSYTLTISSLQPEDFATYYCQQFSESTWTFGQGTKLEIKR | 55900

## Input Determine its reported MFI: hz3F10-1.2 (antibody, human IgG4 S228P, kappa, V domains shown, humanized 3F10, full-length heavy and light chains) VH: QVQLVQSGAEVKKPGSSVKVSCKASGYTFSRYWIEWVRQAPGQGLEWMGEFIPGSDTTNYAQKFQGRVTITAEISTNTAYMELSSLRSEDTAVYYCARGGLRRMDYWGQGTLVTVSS VL: DIQMTQSPSSLSASVGDRVTITCRASSSVSSTYLHWYQQKPGKAPKLLIYTTSTLASGVPSRFSGSGSGTDFTLTISSLQPEDFATYYCQQFSDSTWTFGQGTKLEIKR
## Output 56700

## Input Supply recorded MFI for hz14A9-2.3 (antibody, human IgG4 S228P, kappa, V domains shown, humanized 14A9, full-length heavy and light chains) VH: QVQLVQSGAEVKKPGASVKVSCKVSGFNIEDDYIEWVRQAPGQGLEWMGRIDPANDKTKYAQKFQGRVTMTGDTSTNTVYMELSSLRSEDTAVYYCARPGLRRYYSMDYWGQGTLVTVSS VL: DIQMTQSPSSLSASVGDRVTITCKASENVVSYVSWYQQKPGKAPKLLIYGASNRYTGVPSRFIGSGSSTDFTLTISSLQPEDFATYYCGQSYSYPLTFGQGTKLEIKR here.
## Output 11000
